test_target: KRAS WT (Homo sapiens (Human))
Sequence (P01116-2 other isoform, or with tags, fused parts or gaps): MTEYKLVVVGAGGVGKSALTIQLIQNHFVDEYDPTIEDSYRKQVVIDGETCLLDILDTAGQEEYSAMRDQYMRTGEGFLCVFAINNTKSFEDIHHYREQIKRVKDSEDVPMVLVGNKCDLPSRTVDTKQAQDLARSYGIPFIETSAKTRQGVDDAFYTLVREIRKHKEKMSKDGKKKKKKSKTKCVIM
assay_name: KRAS WT Biochemical Assay, BODIPY-GDP Exchange TR-FRET (Example 501; 3 nM KRAS WT, 3 nM SOS1, 60-minute incubation)
experimental_conditions: read-out: KRas HTRF IC50
In plain terms, low IC50, meaning strictly below 0.02 µM, gives 1 (yes), and everything else gives 0 (no).

Answered cases to consult:
[
  {
    "molecule": "Cc1nc(N)cc(-c2nc3c4c(nc(OCC5(CN6CCOC(C(F)(F)F)C6)CC5)nc4c2F)N2C[C@H]4CC[C@H](N4)[C@H]2[C@H](C)O3)c1C(F)(F)F (some centres unmarked) [Compound 267]",
    "class_assignment": "0 (no)"
  },
  {
    "molecule": "Cc1c(F)c(N)c(F)c(-c2nc3c4c(nc(OCC5(CN6CCOCC6)CC5)nc4c2F)N2C[C@H]4CC[C@H](N4)[C@H]2[C@H](C)O3)c1C(F)(F)F [Compound 224]",
    "class_assignment": "1 (yes)"
  },
  {
    "molecule": "Cc1c(F)c(N)cc(-c2nc3c4c(nc(OC[C@@]56CCCN5C[C@H](F)C6)nc4c2F)N2C[C@H]4CC[C@H](N4)[C@H]2[C@H](C(F)(F)F)O3)c1C(F)(F)F [Compound 247]",
    "class_assignment": "1 (yes)"
  },
  {
    "molecule": "C[C@@H]1Oc2nc(-c3cc(N)c(F)c(F)c3CC(F)(F)F)c(F)c3nc(OC[C@@]45CCCN4C[C@H](F)C5)nc(c23)N2C[C@H]3CC[C@H](N3)[C@@H]12 [Compound 183]",
    "class_assignment": "1 (yes)"
  }
]

Please examine the following record next.
Find out if reported IC50 for Cc1nc(N)cc(-c2nc3c4c(nc(OCC5(CN6CC7CCC6CO7)CC5)nc4c2F)N2C[C@H]4CC[C@H](N4)[C@H]2[C@H](C)O3)c1C(F)(F)F [Compound 211] is less than 0.02 µM
1 (yes)

---

Reported log10 IC50 values for the following compounds.
test_target: KRAS G12D (Homo sapiens (Human), UniProt P01116, G12D)
Sequence (P01116-2 other isoform, or with tags, fused parts or gaps G12D): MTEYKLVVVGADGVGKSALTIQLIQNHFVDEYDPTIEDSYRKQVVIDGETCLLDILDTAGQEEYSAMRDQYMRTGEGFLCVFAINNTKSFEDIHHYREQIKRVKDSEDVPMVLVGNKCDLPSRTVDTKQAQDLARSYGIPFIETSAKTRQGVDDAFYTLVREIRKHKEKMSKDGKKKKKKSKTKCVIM
assay_name: KRAS G12D LoEnz Biochemical Assay, BODIPY-GDP Exchange TR-FRET (SOS1-mediated nucleotide exchange)
experimental_conditions: read-out: KRas (G12D) GDP HTRF IC50
Answers are given as log10 of IC50 in nM.

So for Cc1c(F)c(N)cc(-c2nc3c4c(nc(OC[C@@]56CCCN5C[C@H](F)C6)nc4c2F)N2C[C@H]4CC[C@H](NC4)[C@H]2CO3)c1C(F)(F)F , the logged log10 IC50 turned out to be 1.83

---

test_target: KRAS WT (Homo sapiens (Human))
assay_name: KRAS WT Biochemical Assay, BODIPY-GDP Exchange TR-FRET (Example 501; 3 nM KRAS WT, 3 nM SOS1, 60-minute incubation)
experimental_conditions: read-out: KRas(wt) GDP HTRF IC50
In plain terms, low IC50, meaning strictly below 2 nM, gives Condition met, and everything else gives Condition not met.

Answered cases to consult:
[
  {
    "given_smiles": "Cc1cc(N)nc(-c2nc3c4c(nc(OC[C@@]56CCCN5C[C@H](F)C6)nc4c2F)N2C[C@H]4CC[C@H](N4)[C@H]2[C@H](C)O3)c1C(F)(F)F",
    "class_assignment": "Condition not met"
  },
  {
    "given_smiles": "C[C@@H]1Oc2nc(-c3cccc4cccc(Cl)c34)c(F)c3nc(OC[C@@]45CCCN4C[C@H](F)C5)nc(c23)N2C[C@H]3CC[C@H](N3)[C@@H]12",
    "class_assignment": "Condition not met"
  },
  {
    "given_smiles": "Cc1c(F)c(N)cc(-c2nc3c4c(nc(OC[C@@]56CCCN5C[C@H](OCc5ccc(-c7ccccc7C#N)cc5)C6)nc4c2F)N2C[C@H]4CC[C@H](N4)[C@H]2[C@H](C)O3)c1C(F)(F)F",
    "class_assignment": "Condition met"
  }
]

Find out if reported IC50 for C#Cc1cccc2cc(O)cc(-c3nc4c5c(nc(OC[C@@]67CCCN6C[C@H](F)C7)nc5c3F)N3C[C@H]5CC[C@H](CN5CCCF)[C@H]3CO4)c12 is less than 2 nM
Condition met

Find out if reported IC50 for Cc1cc(N)c(F)c(-c2nc3c4c(nc(OC[C@@]56CCCN5C[C@H](F)C6)nc4c2F)N2C[C@H]4CC[C@H](N4)[C@H]2[C@H](C)O3)c1C(F)(F)F is less than 2 nM
Condition not met
